System: SF-295
ASSAY_METHOD_TEXT: NCI tumour cell line growth inhibition, 48 h
Activity calls are given as the source filed them. Cut-off read from the data, not from the text of the source: active = GI50 up to about 1.1 µM and inactive = higher.
RECORDED_METRIC: GI50

>>> measured_value("COc1ccc2c(c1OC)C(=O)c1cnccc1C2=O")
"> 100 µM (inactive)"

Any idea what GI50 was measured for COc1cc(/C=C/C(=O)OCC23CC[C@@]4(C(=O)O)CCC(C)[C@H](C)C4C2=CCC2[C@@]4(C)CC[C@H](O)C(C)(C)C4CC[C@]23C)ccc1O (stereo not given in full) ?
23.8 µM (inactive)

Any idea what GI50 was measured for CC1=C(C(=O)NCC(C)O)CC(C(=O)NCC(C)O)=C(C)N1 (stereo not given) ?
> 100 µM (inactive)

Any idea what GI50 was measured for "Cc1cccc2nc(-c3ccccc3)cc(=O)n12" ?
> 100 µM (inactive)

Any idea what GI50 was measured for C=C(C)C(=O)O[C@H]1C/C(CO)=C/CCC(=C)C(OC(C)=O)[C@H]2OC(=O)C(=C)[C@H]12 (stereo not given in full) ?
23.7 µM (inactive)

Any idea what GI50 was measured for C=C1C(=O)OC2CC3(C)C=CC(=O)C(=C)C3CC12 (stereo not given) ?
13.9 µM (inactive)

Any idea what GI50 was measured for "COc1ccc2[nH]c3c([N+](=O)[O-])ccc(NCCN(C)C)c3/c(=N/CCN(C)C)c2c1" ?
1.58 µM (inactive)

Any idea what GI50 was measured for CC1=CC(=O)N(c2c(C)cccc2Cl)C(C)N1 (stereo not given) ?
> 100 µM (inactive)

Any idea what GI50 was measured for NC(=S)N/N=C1\CCCCC1C(O)(C(F)(F)Cl)C(F)(F)Cl (stereo not given) ?
> 10 µM (inactive)

Any idea what GI50 was measured for "CCOC(=O)CO/N=C1/C(=C2/C(=O)Nc3ccccc32)Nc2ccccc21" ?
33.3 µM (inactive)

###

Test system: MOLT-4
ASSAY_METHOD_TEXT: NCI tumour cell line growth inhibition, 48 h
The source made the active and inactive calls. No stated cut-off is given here; in the data, active = GI50 up to about 1.1 µM and inactive = higher.
Hi! Could you answer with just one of these? active, inactive

Which outcome was assigned to COC1CC(O[C@H]2CC[C@@]3(C)[C@@H](CC[C@]4(O)[C@@H]3CC[C@]3(C)[C@@H](C(C)=O)[C@H](OC(=O)CC(C)C)[C@@H](OC(=O)c5ccccc5)[C@@]34O)C2)OC(C)C1OC1CC(OC)C(OC2OC(C)C(O)C(OC)C2O)C(C)O1 (stereo not given in full) in this test?
inactive

###

System: T47D
ASSAY_METHOD_TEXT: NCI tumour cell line growth inhibition, 48 h
Active and inactive are the calls of the source. Rule as the data show it: active = GI50 up to about 1.1 µM and inactive = higher.
Hi! Could you answer with just one of these? active, inactive

Which outcome was assigned to "C/C(Cc1ccc2c(c1)OCO2)=N\N=c1\sc2ccccc2n1C" in this test?
inactive

Which outcome was assigned to "COc1cc2c(cc1OCCCCOc1cc(-c3ccc(F)cc3)nc(C)n1)N=C[C@@H]1CCCN1C2=O" in this test?
active

Which outcome was assigned to "c1ccc2c(c1)nc1n2CNCC1" in this test?
inactive

###

System: M14
ASSAY_METHOD_TEXT: NCI tumour cell line growth inhibition, 48 h
Calls of active or inactive are those of the source. Rule as the data show it: active = GI50 up to about 1.1 µM and inactive = higher.
RECORDED_METRIC: GI50

Some molecules with recorded GI50:
>>> measured_value("COC(=O)c1ccc2c(c1)CC1(C2)Cc2ccccc2C1=O (stereo not given)")
"18.7 µM (inactive)"
>>> measured_value("Oc1ccc(Cl)cc1-c1nc(S)nc(-c2ccccc2)c1Cl")
"> 100 µM (inactive)"
>>> measured_value("CCN1C/C(=C\\c2ccc(Cl)cc2)C2=NN(c3ccccc3)C(c3ccc(Cl)cc3)C2C1 (stereo not given)")
"> 100 µM (inactive)"

Any idea what GI50 was measured for "COC(=O)c1ccccc1C#CC#Cc1ccccc1C(=O)OC" ?
> 10 µM (inactive)

Any idea what GI50 was measured for "O=c1oc2cc(O)ccc2cc1-c1nc2ccccc2s1" ?
24.5 µM (inactive)

Any idea what GI50 was measured for "[O-][n+]1c2cc3c(cc2[n+]([O-])c2c(O)cccc21)CN(CCN1CCOCC1)C3" ?
49.5 µM (inactive)

Any idea what GI50 was measured for "Cn1cc2ccccc2c1-c1nc(F)nc(Nc2ccc(N)cc2)n1" ?
13.6 µM (inactive)

Any idea what GI50 was measured for O=C1CC(c2ccccc2Cl)C2(C(=O)NC(=S)NC2=O)C(c2ccccc2Cl)C1 (stereo not given) ?
17.1 µM (inactive)

Any idea what GI50 was measured for "CCN(CCCl)c1cc(CN(C)C)cc(NC(=O)c2ccc(C(=O)Nc3cccc(CN(C)C)c3)cc2)c1" ?
4.27 µM (inactive)

Any idea what GI50 was measured for "O=C(CCc1nnc(S)[nH]1)Nc1cc(Cl)c(Cl)cc1Cl" ?
> 100 µM (inactive)

###

Test system: MDA-N
ASSAY_METHOD_TEXT: NCI tumour cell line growth inhibition, 48 h
The source made the active and inactive calls. Cut-off read from the data, not from the text of the source: active = GI50 up to about 1.1 µM and inactive = higher.
Hi! Could you answer with just one of these? class 1 (active), class 0 (inactive)

>>> group("c1ccc(-c2c(-c3cccs3)[nH]c(-c3cccs3)c2-c2ccccn2)nc1")
"class 1"
>>> group("Clc1c2ncccc2cc2nn[nH]c12")
"class 0"
>>> group("CCCCCCCCCCCCC/C=C/[C@@H](O)[C@H](COC1OC(CO)C(OC2OC(CO)C(O)C(OC3(C(=O)O)CC(O)C(NC(C)=O)C(C(O)C(O)CO)O3)C2O)C(O)C1O)N=[N+]=[N-] (stereo partly drawn)")
"class 0"
>>> group("C[C@]12CC[C@H](O)CC1=CC[C@@H]1[C@@H]2CC[C@]2(C)NC(=O)/C(=C\\c3ccccc3)C[C@@H]12")
"class 0"
>>> group("Cn1c(=O)c(-c2ccccc2)c(O)c2ccccc21")
"class 0"
>>> group("C=C(C)C(=O)O[C@H]1C/C(CO)=C/CCC(=C)C(OC(C)=O)[C@H]2OC(=O)C(=C)[C@H]12 (stereo partly drawn)")
"class 0"
>>> group("C=C1CC[C@@H]2[C@](C)(COC(=O)CCC(=O)O)CCC[C@@]2(C)[C@@H]1CCC1=CC(=O)OC1")
"class 0"

Which outcome was assigned to COc1cccc(C2ON=C(c3ccccc3)N2C23CC4CC(CC(C4)C2)C3)c1 (stereo not drawn) in this test?
class 0

###

Tested on: A498
ASSAY_METHOD_TEXT: NCI tumour cell line growth inhibition, 48 h
Active and inactive are the calls of the source. Rule as the data show it: active = GI50 up to about 1.1 µM and inactive = higher.
RECORDED_METRIC: GI50

Some compounds with recorded GI50:
>>> measured_value("O=C(/C=C1\\Nc2ccccc2C(=O)N1c1ccccc1Cl)c1ccccc1")
"> 100 µM (inactive)"
>>> measured_value("C#CCNC(=O)NCCCCC(NC(=O)OCc1ccccc1)C(=O)OCc1ccccc1 (stereo unspecified)")
"> 100 µM (inactive)"
>>> measured_value("COc1ccc2c(c1)CCCN2S(=O)(=O)c1ccccc1[N+](=O)[O-]")
"33.4 µM (inactive)"
>>> measured_value("Cc1cc(O)c2c(c1)C(=O)C=C(Br)C2=O")
"18.9 µM (inactive)"
>>> measured_value("CC(C#N)(c1ccccc1)N(CCc1ccccc1)C(=O)Oc1ccccc1 (stereo unspecified)")
"> 100 µM (inactive)"

Below: the item to evaluate.
Could you share what GI50 was measured for CC(NNC(=O)c1ccncc1)c1ccc(Cl)c(Cl)c1 (stereo unspecified) , tested on A498?
69.3 µM (inactive)

###

System: NCI-H522
ASSAY_METHOD_TEXT: NCI tumour cell line growth inhibition, 48 h
Calls of active or inactive are those of the source. Rule as the data show it: active = GI50 up to about 1.1 µM and inactive = higher.
RECORDED_METRIC: GI50

Some compounds with recorded GI50:
>>> measured_value("CC1=C(C(=O)N[C@@H](CC(C)C)C(=O)O)N2C(=O)[C@@H](NC(=O)[C@@H](N)Cc3ccccc3)[C@H]2SC1")
"> 100 µM (inactive)"
>>> measured_value("CSC(=S)NNC(=O)c1ccncc1")
"16.9 µM (inactive)"
>>> measured_value("COC(=O)/C=C\\C(C#N)(C#N)/N=C/c1cc(Br)cs1")
"1.5 µM (inactive)"
>>> measured_value("CC1=NN(C(=O)CC(=O)Nc2ccc(Cl)cc2)C(=O)C1/N=N\\c1ccc(S(=O)(=O)c2ccc(/N=N/C3C(=O)N(C(=O)CC(=O)Nc4ccc(Cl)cc4)N=C3C)cc2)cc1 (stereo unspecified)")
"> 100 µM (inactive)"
>>> measured_value("COc1ccc2c(c1)CCCN2S(=O)(=O)c1ccccc1[N+](=O)[O-]")
"26.7 µM (inactive)"

Any idea what GI50 was measured for "O=C(O)Cc1cccc2c(=O)cc(-c3ccccc3)oc12" ?
228 µM (inactive)

Any idea what GI50 was measured for "C/C(=C\c1ccccn1)c1ccccn1" ?
> 100 µM (inactive)

Any idea what GI50 was measured for "O=C1c2c(Br)sc(Br)c2[C@H]2NC(=S)O[C@@H]12" ?
1.86 µM (inactive)

Any idea what GI50 was measured for "Cc1ccccc1/N=C/N(C)C" ?
21.2 µM (inactive)

Any idea what GI50 was measured for Cc1cccc(C(C)(C)C)c1NC(=O)C(C#N)C1=C(Cl)C(=O)c2ccccc2C1=O (stereo unspecified) ?
13.8 µM (inactive)

Any idea what GI50 was measured for "CCN(C)c1nc(N(C)CC)c2nc(N(C)CC)nc(N(C)CC)c2n1" ?
> 100 µM (inactive)
